Tested on: MS2 coat protein
protocol: apparent KD of MS2 coat protein; designed switch direction (-1 OFF switch, 1 ON switch): -1; higher = weaker reporter binding
test-parameters: Eterna round: R95; input ligand: microRNA oligo, concentration not stated
observable: apparent KD of MS2 coat protein (nM)
Numbers only, in nM.

1. GCAUGGCGAGGAUAUACAUGAGGAUCACCCAUGUGAGAAUAAUAAGUGAGGAAGAAAAGUAGAAGGCGCUGUGG [Mat - Exclusion 3 - Mod of Salish D64] (puzzle: Exclusion 3) : 70.1
2. CCUCAACAGUAGGAUAUCAUAUAACUAUUGUGAUGAGAAGGACUGACAUGAGGAUCACCCAUGUUAACGUGAUA [Exclusion 6 - 5:b] (puzzle: Exclusion 6) : 17.3
3. CUUGUGUGAGGAUAUCAGUAGUAGUACGAUAGUAUUACUGCUGAGAAGGCACAUGAGGAUCACCCAUGUUCUUC [Exclusion 4 - Mod Omei Ex4 344 mod v.4] (puzzle: Exclusion 4) : 23.6
4. UUUAAUUUUUUUUUUUUACAAGCUUUUUGCUCGUCUUAUACAUGAGGAUCACCCAUGUGGGUGGAAGGUAAAUUAUC [JMF 70] (puzzle: Sensor v3, turn-off variant 2) : 26.7

Just so you know, measured apparent KD of MS2 coat protein for CUGAUGUUAGGAUAUCAGGCGCCCGCCACUGGCAGGGCGCAUGAGAAGGGACAUGAGGAUCACCCAUGUAGUAA [Anorbeus] (puzzle: Exclusion 4) came out at 26.3

----------
System: K4 kissing-loop RNA reporter;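 further: bound reporter read as fluorescence of individual clusters on recovered sequencing chips by microscopy, with normalized cluster intensities fitted with a binding model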
protocol: apparent KD of K4 kissing-loop reporter; higher = weaker reporter binding
test-parameters: Eterna round: R107; input ligand: tryptophan 2.4 mM
observable: apparent KD of K4 kissing-loop reporter (nM)
Give bare numbers, in nM.

Would you mind giving apparent KD of K4 kissing-loop reporter for every sequence in the list below?
1. AAAACGCUGGAUGAAUAACAUCUAGCGAAUCGAGGACCGGUACGGCCGCCACUCGGAGCUAAACUGCGAGUGAUGUUCGUAAAAU [Mat - Mod of OpenEnded 3 - D18]
2. AAGUCAUAGGCAGGAUAUGCAUUGUAAUAAGGCAAUAUAUACGUAUAGAGUGAUGUUUUGUACCAGGCAGAAGGGCUACAUCAGU [FMN B Excl V10 (+5A/U)]
3. CUCUAACUGAGAAGGAGCGCGAUAUAAACACUCGCACAGUGAUGUUGUGUGUCAAGGGUAUCGCAGGUAGGUCGCUCAGAUACCU [Arg B SS t15]
4. GUCCCAGUGAUGUUGGUAGGCGGGCGGGAUACCAGCGGAGACUCACGCCCUUGGCAGCCCACAUAUCCCGCGUAGGGAUUAGCCC [Same State - Theophylline A (Freestyle 23)]
5. AAAUAUUCGAGUGAUGUUCGUUAAAUUACAGAGGAUAUGCUUAAAAGCAGAAGGCUGUAUUUCUAUUUGUUAUGUAAUUUUAAAA [JR_ExcFMNA_Sub004]
6. UGUGAACAAAAGUAGAGUGGACCACUAUAGCGAGGACCGGUACGGCCGCCACUCGUACAUGUAUUCAGUGAUGUUGAAAUGAGCU [whbob_EX_Tryp_A_t15]
7. UAAGAGUCUCUGCAAUUAGCAGAGACUCAACGAGGACCGGUACGGCCGCCACUCGGGUCCUAGAGUGAUGUUCUAAUAAUAUAAU [AK1.1 SS Tryptophan A]

Result block:
1: 428; 2: 416; 3: 248; 4: 275; 5: 115; 6: 150; 7: 176
